biological target: Albumin (Bos taurus) (UniProt P02769); experiment: compounds binding labelled BSA control protein – biochemical, small-molecule microarray, Alexa647 label, 635/667 nm fluorescence, artefact control for SMM control protein annotation, profiling panel (AID 1118); conditions: BSA-A647 binding, fluorescence 635 nm, higher = more signal;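 note: score merges 667 nm emission intensity and signal-to-noise per printed compound spot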
Sequence (P02769 whole entry, looked up): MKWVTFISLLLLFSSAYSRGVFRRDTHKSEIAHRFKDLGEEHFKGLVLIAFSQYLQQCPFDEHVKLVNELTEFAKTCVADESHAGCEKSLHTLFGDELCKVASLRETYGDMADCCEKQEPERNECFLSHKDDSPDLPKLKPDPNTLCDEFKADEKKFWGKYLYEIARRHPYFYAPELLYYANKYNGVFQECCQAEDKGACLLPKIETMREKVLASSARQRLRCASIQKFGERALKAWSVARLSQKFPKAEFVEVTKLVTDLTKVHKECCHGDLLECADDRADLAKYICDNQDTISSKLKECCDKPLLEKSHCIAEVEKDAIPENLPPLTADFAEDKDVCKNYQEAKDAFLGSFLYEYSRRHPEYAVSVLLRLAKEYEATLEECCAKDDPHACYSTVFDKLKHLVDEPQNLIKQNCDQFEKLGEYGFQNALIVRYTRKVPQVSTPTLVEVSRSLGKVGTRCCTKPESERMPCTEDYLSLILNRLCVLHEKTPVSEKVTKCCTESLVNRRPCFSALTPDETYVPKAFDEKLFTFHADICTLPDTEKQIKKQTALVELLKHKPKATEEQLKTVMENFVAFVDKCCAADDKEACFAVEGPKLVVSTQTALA
The entries below are paired with their reported composite z-score.
Give the figure only, with no unit attached.

- C=C[C@H](C)[C@H](O)c1ccc(OCCO)cc1: -0.529
- O=C(NCC(O)CO)[C@@]1(Cc2ccccc2)COC(c2ccc(OCCCO)cc2)=N1 (stereo not given in full): 0.536
- O=C1C2C=CC(C(O)C3CC=CCC3)N(n3cnnc3)C2C(=O)N1Cc1ccccc1 (stereo not given): -0.952

(Q) Which composite z-score value belongs to O=C(NCC(F)(F)F)[C@@H]1c2ccccc2C(=O)N(Cc2ccccc2)[C@H]1c1ccc(CO)cc1 ?
(A) -1.27

(Q) Which composite z-score value belongs to CCN(CC)c1ccc(N2CC=CC34O[C@@H]5/C=C\CCC(C)OC(=O)C5[C@H]3C(=O)N(CCCCCCO)[C@@H]4C2=O)cc1 (stereo not given in full) ?
(A) 0.362
